Molecular target: PRMT5 (Homo sapiens)
Construct: purchased Viva (custom protein)
Experiment: PRMT5 biochemical IC50 assay with MTA as cofactor
Conditions: PRMT5, MTA as cofactor; read-out: MTA IC50
pIC50: −log10 of the molar value.
READOUT LABEL: pIC50

// solved cases for pIC50 follow
- CCc1cc(NC(=O)C(=O)N2C[C@@H](C)CC[C@@H]2c2ccc(CCN(C)C)c(Cl)c2)cnc1N: > 7.30
- CNC(=O)[C@@H]1CC[C@@H](c2ccccc2)N(C(=O)C(=O)Nc2cnc(N)c(C)c2)C1 (racemic): 6.30 to 7.30
- Cc1cc(NC(=O)C(=O)N2C[C@H](C)[C@@H](CC(C)C)C[C@H]2c2ccc3scnc3c2)cnc1N (single isomer, unassigned): > 7.30
- CCc1cc(NC(=O)C(=O)N2C[C@@H](C)CC[C@@H]2c2ccc(N3CCN(C)C[C@@H]3C)nc2)cnc1N (racemic): > 7.30
- Cc1cncc(NC(=O)C(=O)N2C[C@H](C)CC[C@H]2c2ccc3c(c2)CCCC3)c1 (racemic): 6.30 to 7.30

Alright, here's another compound for you.
Q: Need pIC50, item CC(=O)Nc1ccc([C@@H]2CC[C@@H](C)CN2C(=O)C(=O)Nc2cncc(C(N)=O)c2)cn1 (single isomer, unassigned)
Result: > 7.30

====

Exercise: state measured pIC50 for each of the compounds provided.
Target: PRMT5 (Homo sapiens)
Construct: purchased Viva (custom protein)
Assay: PRMT5 biochemical IC50 assay with MTA as cofactor
Settings: PRMT5, MTA as cofactor; read-out: MTA IC50
pIC50: −log10 of the molar value.

* C[C@@H]1CC[C@@H](c2cc(F)c(F)c(F)c2)N(C(=O)C(=O)Nc2cncc(C(N)=O)c2)C1 (single isomer, unassigned) | < 6.30

Report pIC50 for every entry below.
1. Cc1cc(NC(=O)C(=O)N2CCCCC2c2cccc3c2CC(=O)N3)cnc1N (stereo not shown)
2. Cc1ccc([C@@H]2CC[C@@H](C)CN2C(=O)C(=O)Nc2cncc(C(N)=O)c2)cc1Cl (single isomer, unassigned) [Compound 485]
3. C[C@@H]1CC[C@@H](c2ccc(N)nc2)N(C(=O)C(=O)Nc2cncc(C(N)=O)c2)C1 (single isomer, unassigned) [Compound 492]
4. COc1ncc(NC(=O)C(=O)N2C[C@H](C)CC[C@H]2c2ccc3sc(C(F)(F)F)nc3c2)cc1C(N)=O (single isomer, unassigned)
5. CCc1cc([C@@H]2CC[C@@H](C)CN2C(=O)C(=O)Nc2cncc(C(N)=O)c2)ccc1O (racemic)

Result:
6.30 to 7.30
< 6.30
> 7.30
< 6.30
6.30 to 7.30

Return reported pIC50 values for all items listed beneath this line.
1. Cc1cc(NC(=O)C(=O)N2CCCCC2C2CCCCC2)cnc1N (stereo not shown)
2. CCc1cc(NC(=O)C(=O)N2C[C@@H](C)CC[C@@H]2c2ccc3sc(N4CCN(C)CC4)nc3c2)cnc1N
3. C[C@@H]1CC[C@H](c2ccc(O)nc2)N(C(=O)C(=O)Nc2cncc(C(N)=O)c2)C1 (single isomer, unassigned)

Result:
6.30 to 7.30
> 7.30
> 7.30

Look up pIC50 for the entries below, preserving their order.
1. C[C@@H]1CC[C@@H](c2ccc(Cn3cncn3)cc2)N(C(=O)C(=O)Nc2cncc(C(N)=O)c2)C1 (racemic)
2. C[C@H]1CC[C@H](c2ccc(O)c(F)c2)N(C(=O)C(=O)Nc2cncc(C(N)=O)c2)C1 (single isomer, unassigned)
3. CCc1cc(NC(=O)C(=O)N2C[C@@H](C)CC[C@@H]2c2ccc3sc(C4CCNCC4)nc3c2)cnc1N
4. Cc1ncc(NC(=O)C(=O)N2C[C@H](C)CC[C@H]2c2ccc3c(c2)CCC(=O)N3)cc1Cl (racemic) [Compound 639]

Result:
1: > 7.30; 2: > 7.30; 3: > 7.30; 4: 6.30 to 7.30

====

Please go through the items and note down their IC50.
Target: PRMT5 (Homo sapiens, UniProt O14744)
Construct: purchased Viva (custom protein)
Sequence (O14744 whole entry): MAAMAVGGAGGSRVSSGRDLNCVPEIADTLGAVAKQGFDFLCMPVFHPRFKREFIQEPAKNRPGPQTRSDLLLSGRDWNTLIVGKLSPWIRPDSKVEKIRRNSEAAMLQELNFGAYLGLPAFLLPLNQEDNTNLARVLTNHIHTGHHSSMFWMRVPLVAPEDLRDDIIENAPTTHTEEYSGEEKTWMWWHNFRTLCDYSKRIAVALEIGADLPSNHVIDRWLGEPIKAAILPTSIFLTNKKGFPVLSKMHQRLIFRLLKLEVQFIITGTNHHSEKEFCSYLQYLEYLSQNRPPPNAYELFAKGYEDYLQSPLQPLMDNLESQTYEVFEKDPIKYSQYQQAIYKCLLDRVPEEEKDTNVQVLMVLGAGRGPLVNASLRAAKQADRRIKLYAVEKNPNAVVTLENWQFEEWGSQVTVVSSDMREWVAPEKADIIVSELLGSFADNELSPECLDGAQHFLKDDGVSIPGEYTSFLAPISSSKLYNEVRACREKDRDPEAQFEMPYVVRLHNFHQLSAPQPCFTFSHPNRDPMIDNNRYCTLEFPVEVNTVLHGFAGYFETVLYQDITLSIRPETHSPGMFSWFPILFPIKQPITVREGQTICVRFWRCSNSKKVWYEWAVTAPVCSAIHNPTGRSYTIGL
Sequence (Q9BQA1 whole entry partner): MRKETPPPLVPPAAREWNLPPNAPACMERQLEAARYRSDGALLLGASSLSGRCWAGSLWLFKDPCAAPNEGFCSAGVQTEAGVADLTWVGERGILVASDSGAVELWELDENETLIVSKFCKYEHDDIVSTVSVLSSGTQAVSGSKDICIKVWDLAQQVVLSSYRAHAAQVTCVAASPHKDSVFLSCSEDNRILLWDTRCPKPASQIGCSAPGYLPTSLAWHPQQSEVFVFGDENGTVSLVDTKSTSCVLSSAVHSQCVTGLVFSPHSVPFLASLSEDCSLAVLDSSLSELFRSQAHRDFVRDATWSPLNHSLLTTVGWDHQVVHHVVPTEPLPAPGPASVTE
Experiment: PRMT5 biochemical IC50 assay with SAM as cofactor
Details: PRMT5, SAM as cofactor; read-out: SAM IC50

Check out these entries, answers already filled in.
- Cc1cc(NC(=O)C(=O)N2C[C@H](C)CC[C@H]2c2cc3[nH]ncc3s2)cnc1N (racemic) [Compound 743]: 50 to 500 nM
- Cc1cc(NC(=O)C(=O)N2C[C@H](C)CC[C@H]2c2cc(F)c(F)c(Cl)c2)cnc1N (single isomer, unassigned) [Compound 847]: > 500 nM
- COc1ncc(NC(=O)C(=O)N2C[C@@H](C)CC[C@@H]2C2CCCC2)cc1C(N)=O (single isomer, unassigned) [Compound 298]: > 500 nM
- CCc1cc(NC(=O)C(=O)N2C[C@@H](C)CC[C@@H]2c2cccc(OCCN3CCCC3)c2)cnc1N [Compound 1391]: < 50 nM
- NC(=O)c1cncc(NC(=O)C(=O)N2CC3(CCC2c2ccc(F)cc2)CC3)c1 (stereo not shown) [Compound 776]: 50 to 500 nM
- C[C@@H]1CC[C@@H](c2cc(F)c(O)c(F)c2)N(C(=O)C(=O)Nc2cncc(C(N)=O)c2)C1 (racemic) [Compound 560]: 50 to 500 nM
- C[C@@H]1CC[C@@H](c2ccc(Cl)c(Cl)c2)N(C(=O)C(=O)Nc2cncc(C(N)=O)c2)C1 (single isomer, unassigned) [Compound 489]: > 500 nM
- CCc1cc(NC(=O)C(=O)N2C[C@@H](C)CC[C@@H]2c2ccc3sc(CCN(C)C4COC4)nc3c2)cnc1N [Compound 1195]: 50 to 500 nM

Please supply IC50 for each of the following items, keeping them in order.
1. C[C@@H]1CC[C@@H](c2cccnc2)N(C(=O)C(=O)Nc2cncc(C(N)=O)c2)C1 (racemic) [Compound 102]
2. C[C@@H]1CC[C@@H](c2ccccc2)N(C(=O)C(=O)Nc2cncc(C(N)=O)c2)[C@H]1C (single isomer, unassigned) [Compound 482]
3. Cc1cc(NC(=O)C(=O)N2C[C@H](C)CC[C@H]2c2cc3cn[nH]c3s2)cnc1N (racemic) [Compound 815]
4. C[C@@H]1CC[C@@H](c2cnc3c(c2)CCC(=O)N3)N(C(=O)C(=O)Nc2cncc(C(N)=O)c2)C1 (racemic) [Compound 888]
5. C[C@@H]1CC[C@@H](c2ccc(OC(F)(F)F)cc2)N(C(=O)C(=O)Nc2cncc(C(N)=O)c2)C1 (racemic) [Compound 250]

Result:
50 to 500 nM
50 to 500 nM
50 to 500 nM
50 to 500 nM
50 to 500 nM

====

Assign IC50 to each entry below.
Target: PRMT5 (Homo sapiens)
Construct: purchased Viva (custom protein)
Assay: PRMT5 biochemical IC50 assay with SAM as cofactor
Conditions: PRMT5, SAM as cofactor; read-out: SAM IC50

Consider the following illustrative entries.
• CCc1cc(NC(=O)C(=O)N2C[C@@H](C)CC[C@@H]2c2ccc3[nH]ncc3c2)cnc1N (single isomer, unassigned) [Compound 589] = < 50 nM
• COc1ncc(NC(=O)C(=O)N2C[C@H](C)CC[C@H]2c2ccc(C)nc2)cc1C(N)=O (single isomer, unassigned) [Compound 754] = 50 to 500 nM
• CCc1cc(NC(=O)C(=O)N2C[C@@H](C)CC[C@@H]2c2ccc(N3CCN(C)CC3)c(Cl)c2)cnc1N (racemic) [Compound 1265] = 50 to 500 nM

Could you tell me IC50 for each of these compounds? They are listed below.
1. CNC(=O)c1ccc([C@H]2CC[C@H](C)CN2C(=O)C(=O)Nc2cnc(N)c(C)c2)s1 (single isomer, unassigned) [Compound 859]
2. Cc1cncc(NC(=O)C(=O)N2C[C@H](C)CC[C@H]2c2cccc(Cl)c2)c1 (racemic) [Compound 13]
3. Cc1cc(NC(=O)C(=O)N2C[C@@H](C)CC[C@@H]2c2ccc3sc(N)nc3c2)cnc1N (single isomer, unassigned) [Compound 997]
4. CC(=O)N1CCC(c2nc3cc([C@H]4CC[C@H](C)CN4C(=O)C(=O)Nc4cnc(N)c(C)c4)ccc3s2)CC1 [Compound 1093]
5. Cc1cc(NC(=O)C(=O)N2C[C@H](C)CC[C@H]2c2ccc(C(C)(C)O)cc2)cnc1N (racemic) [Compound 672]
6. Cc1cc(NC(=O)C(=O)N2C[C@H](C)CC[C@H]2c2ccc(-c3cncs3)cc2)cnc1N (single isomer, unassigned) [Compound 900]

Result:
["50 to 500 nM", "> 500 nM", "50 to 500 nM", "< 50 nM", "50 to 500 nM", "> 500 nM"]

Can you give me IC50 for all of these, one by one?
1. Cc1cncc(NC(=O)C(=O)N2CC(C)CC[C@@H]2c2cccc(F)c2)c1 (single isomer, unassigned) [Compound 84]
2. NC(=O)c1cncc(NC(=O)C(=O)N2C[C@H](OC(F)F)CC[C@@H]2c2ccccc2)c1 (racemic) [Compound 400]

Result:
1: > 500 nM; 2: > 500 nM
